Assay: Mouse plasma ciclopirox pharmacokinetics after 30 mg/kg oral dose
Type: in vivo
Conditions: mouse, in vivo, po, 30 mg/kg, Plasma Ciclopirox Concentrations, Mean
measurement name: concentration at 0 min (ng/mL)
Give just the number in ng/mL; leave the unit off.

concentration at 0 min lookup needed for Cc1cc(C2CCCCC2)n(O)c(=O)c1 [Ciclopirox Olamine, reference compound] , thanks.
0

* * *

Assay: Mouse plasma ciclopirox pharmacokinetics after 10 mg/kg IV bolus
Format: in vivo
Conditions: in vivo, iv, 10 mg/kg, Plasma Ciclopirox Concentrations, Mean
measurement name: concentration at 15 min (ng/mL)
Return type: number; implicit unit ng/mL.

Name the reported concentration at 15 min value associated with the molecule Cc1cc(C2CCCCC2)n(O)c(=O)c1 [Ciclopirox Olamine, reference compound]
892

* * *

Assay: Mouse plasma ciclopirox pharmacokinetics after 30 mg/kg oral dose
Type: in vivo
Details: mouse, in vivo, po, 30 mg/kg, Plasma Ciclopirox Concentrations, Mean
Description: The plasma ciclopirox (i.e., CPX) concentrations in (ng/mL) were determined following bolus administration of ciclopirox-POM prodrug at a 30 mg/kg orally in a mouse model. Time points where data collected are shown in Table 3 to be at 5, 15, 30, 60, 90, 120, 180, and 240 minutes along with the data. […] The oral formulation is a composition having Orasweet SF along with the […]. […] Additionally, mouse oral dose pharmacokinetics were determined. […]
measurement name: concentration at 60 min
Put down the number, then write its unit next to it.

Please report the recorded concentration at 60 min for Cc1cc(C2CCCCC2)n(O)c(=O)c1 [Ciclopirox Olamine, reference compound] .
309 ng/mL

* * *

Assay: Mouse plasma ciclopirox pharmacokinetics after 30 mg/kg oral dose
Type: in vivo
Details: mouse, in vivo, po, 30 mg/kg, Plasma Ciclopirox Concentrations
measurement name: concentration at 0 min (ng/mL)
Report as a plain number; the unit ng/mL is understood.

Bench note: what concentration at 0 min did Cc1cc(C2CCCCC2)n(O)c(=O)c1 [Ciclopirox Olamine, reference compound] show?
0

* * *

Assay: Mouse plasma ciclopirox pharmacokinetics after 30 mg/kg oral dose
Format: in vivo
Details: mouse, in vivo, po, 30 mg/kg, Plasma Ciclopirox Concentrations
Experimental: The plasma ciclopirox (i.e., CPX) concentrations in (ng/mL) were determined following bolus administration of ciclopirox-POM prodrug at a 30 mg/kg orally in a mouse model. Time points where data collected are shown in Table 3 to be at 5, 15, 30, 60, 90, 120, 180, and 240 minutes along with the data. […] The oral formulation is a composition having Orasweet SF along with the […]. […] Additionally, mouse oral dose pharmacokinetics were determined. […]
measurement name: concentration at 30 min (ng/mL)
Output spec: scalar in ng/mL, unitless text.

Tell me the measured concentration at 30 min of Cc1cc(C2CCCCC2)n(O)c(=O)c1 [Ciclopirox Olamine, reference compound] , please.
427

* * *

Assay: Mouse plasma ciclopirox pharmacokinetics after 30 mg/kg oral dose
Format: in vivo
Conditions: mouse, in vivo, po, 30 mg/kg, Plasma Ciclopirox Concentrations
measurement name: concentration at 15 min
A bare number is not enough; add the unit after it.

Query (compound): Cc1cc(C2CCCCC2)n(O)c(=O)c1 [Ciclopirox Olamine, reference compound] ; field requested: concentration at 15 min
478 ng/mL

* * *

Experiment: Mouse plasma ciclopirox pharmacokinetics after 30 mg/kg oral dose
Assay type: in vivo
Details: mouse, in vivo, po, 30 mg/kg
measurement name: Tmax
Value and unit, in that order.

Please give the measured Tmax for this compound: Cc1cc(C2CCCCC2)n(O)c(=O)c1 [Ciclopirox Olamine, reference compound]
15 min
